meta.source: the Immune Epitope Database (IEDB)

target: HLA-A*68:02; assay: IEDB peptide-MHC binding, purified MHC/competitive/radioactivity; filed as Kd, often an IC50 or EC50 that approximates it; bounds were set here for any values at or beyond the usual limits of such assays; settings: source organism: Hepacivirus hominis
ATTRIBUTE MEASURED: Kd

# input # Kd lookup, item RNWAHSSL
# output ≥ 69.8 µM

====

What pKd was measured for each of the following?
target: HLA-A*02:12; test: IEDB peptide-MHC binding, purified MHC/direct/fluorescence; filed as Kd, often an IC50 or EC50 that approximates it; bounds were set here for any values at or beyond the usual limits of such assays; conditions: source organism: Zaire ebolavirus
pKd: −log10 of the molar value.

Use the examples below as a reference point.
CONSTRUCT SEQUENCE	OBSERVED MEASUREMENT
HLPGFGTAF	≤ 4.70
LSDLCNFLV	≤ 4.70

# input API: value(readout= pKd, system= HLA-A*02:12, query= LEARVNLSV )
# output ≤ 4.70
